- SUBJECT_OF_TEST: TAAR1 (Mus musculus, UniProt Q923Y8)
- PROTOCOL_NOTES: TAAR1 radioligand binding, membranes of stably transfected HEK293 cells (mouse)
MEASURED_PARAMETER: pKi
Scale: negative log10 of molar concentration, which is what pKi denotes.

Previously resolved entries follow.
{"MOLECULE": "NC1=NC(c2ccc(Cl)c(Cl)c2)CO1 (racemic)", "SUBJECT_OF_TEST": "TAAR1 (Mus musculus, UniProt Q923Y8)", "MEASURED_PARAMETER": "pKi", "MEAS_VALUE": 9.30}
{"MOLECULE": "COc1ccc(C2COC(N)=N2)cc1C (racemic)", "SUBJECT_OF_TEST": "TAAR1 (Mus musculus, UniProt Q923Y8)", "MEASURED_PARAMETER": "pKi", "MEAS_VALUE": 8.48}
{"MOLECULE": "CC1(c2cc(Cl)ccc2Cl)COC(N)=N1 (racemic)", "SUBJECT_OF_TEST": "TAAR1 (Mus musculus, UniProt Q923Y8)", "MEASURED_PARAMETER": "pKi", "MEAS_VALUE": 8.38}
{"MOLECULE": "Cc1cccc(CC[C@H]2COC(N)=N2)c1", "SUBJECT_OF_TEST": "TAAR1 (Mus musculus, UniProt Q923Y8)", "MEASURED_PARAMETER": "pKi", "MEAS_VALUE": 9.00}
{"MOLECULE": "NC1=NC(c2cccc(Cl)c2F)CO1 (racemic)", "SUBJECT_OF_TEST": "TAAR1 (Mus musculus, UniProt Q923Y8)", "MEASURED_PARAMETER": "pKi", "MEAS_VALUE": 8.66}
{"MOLECULE": "NC1=NC(c2cc(Cl)cc(Cl)c2)CO1 (racemic)", "SUBJECT_OF_TEST": "TAAR1 (Mus musculus, UniProt Q923Y8)", "MEASURED_PARAMETER": "pKi", "MEAS_VALUE": 9.10}

Proceed to the following item.
Noted for Cc1ccc(C2COC(N)=N2)cc1Cl (racemic) : its pKi reads 8.62

====

- SUBJECT_OF_TEST: TAAR1 (Rattus norvegicus)
- PROTOCOL_NOTES: TAAR1 radioligand binding, membranes of stably transfected HEK293 cells (rat)
- CONDITION_SUMMARY: cell marked 'rat'; radioligand [3H]-rac-2-(1,2,3,4-tetrahydro-1-naphthyl)-2-imidazoline, 4° C.; read-out: Ki (μM) mouse/rat
Catalogue of Ki values
I only need the number, in µM, no unit after it.

Previously resolved entries follow.
{"MOLECULE": "Cc1cc([C@@]2(C)COC(N)=N2)ccc1Cl", "READING_UNIT": "µM", "Ki": 0.0019}
{"MOLECULE": "CC1(c2cccc(Cl)c2F)COC(N)=N1 (racemic)", "READING_UNIT": "µM", "Ki": 0.0042}
{"MOLECULE": "CCC(C[C@H]1COC(N)=N1)c1cccc(Cl)c1 (stereo partly shown)", "READING_UNIT": "µM", "Ki": 0.0027}
{"MOLECULE": "NC1=N[C@@H](c2ccc(Br)cc2Cl)CO1", "READING_UNIT": "µM", "Ki": 0.0003}
{"MOLECULE": "NC1=N[C@@H](COc2cc(Cl)cc(Cl)c2)CO1", "READING_UNIT": "µM", "Ki": 0.0045}

Noted for Cc1ccc(Cl)cc1[C@H]1COC(N)=N1 : its Ki reads 0.003

Noted for NC1=N[C@@H](c2ccc(Br)c(F)c2)CO1 : its Ki reads 0.0014

Noted for CC[C@]1(c2ccc(Cl)cc2)COC(N)=N1 : its Ki reads 0.005

Noted for CC1(c2ccc(F)cc2Cl)COC(N)=N1 (racemic) : its Ki reads 0.002

Noted for NC1=N[C@@H](COc2ccc(Cl)c(Cl)c2)CO1 : its Ki reads 0.0028

Noted for NC1=N[C@@H](COc2ccc(Br)cc2)CO1 : its Ki reads 0.009

Noted for NC1=N[C@@H](CCc2ccccc2Br)CO1 : its Ki reads 0.002

Noted for NC1=N[C@H](c2ccc(Br)cc2Cl)CO1 : its Ki reads 0.0016

====

- SUBJECT_OF_TEST: TAAR1 (Mus musculus)
- PROTOCOL_NOTES: TAAR1 radioligand binding, membranes of stably transfected HEK293 cells (mouse)
- CONDITION_SUMMARY: mouse/rat; cell not marked 'rat'; radioligand [3H]-rac-2-(1,2,3,4-tetrahydro-1-naphthyl)-2-imidazoline, 4° C.; read-out: Ki (μM) mouse/rat
MEASURED_PARAMETER: Ki (µM)
I only need the number, in µM, no unit after it.

Previously resolved entries follow.
{"MOLECULE": "NC1=N[C@@H](c2cccc(Br)c2)CO1 [Example 198]", "SUBJECT_OF_TEST": "TAAR1 (Mus musculus)", "Ki [µM]": 0.002}
{"MOLECULE": "NC1=N[C@H](CCc2ccc(Cl)c(Cl)c2)CO1 [Example 124]", "SUBJECT_OF_TEST": "TAAR1 (Mus musculus)", "Ki [µM]": 0.0044}
{"MOLECULE": "NC1=N[C@@H](c2ccc(Cl)cc2Cl)CO1 [Example 296]", "SUBJECT_OF_TEST": "TAAR1 (Mus musculus)", "Ki [µM]": 0.0004}
{"MOLECULE": "C[C@]1(c2cc(F)ccc2F)COC(N)=N1 [Example 187]", "SUBJECT_OF_TEST": "TAAR1 (Mus musculus)", "Ki [µM]": 0.0021}
{"MOLECULE": "NC1=N[C@@H](CCc2ccc(Cl)c(Cl)c2)CO1 [Example 127]", "SUBJECT_OF_TEST": "TAAR1 (Mus musculus)", "Ki [µM]": 0.0003}
{"MOLECULE": "NC1=N[C@@H](COc2ccc(F)cc2F)CO1 [Example 353]", "SUBJECT_OF_TEST": "TAAR1 (Mus musculus)", "Ki [µM]": 0.0014}

Noted for C[C@]1(c2ccc(F)cc2F)COC(N)=N1 [Example 206] : its Ki reads 0.0032

Noted for NC1=N[C@@H](CCc2cc(C(F)(F)F)ccc2F)CO1 [Example 156] : its Ki reads 0.0064

Noted for CC[C@H](C[C@H]1COC(N)=N1)c1ccccc1 [Example 293] : its Ki reads 0.0062

Noted for CCC(C[C@H]1COC(N)=N1)c1ccc(F)cc1 (stereo partly drawn) [Example 210] : its Ki reads 0.0014

Noted for NC1=N[C@@H](CCc2cccc(C(F)(F)F)c2F)CO1 [Example 142] : its Ki reads 0.0018

Noted for C[C@]1(c2ccc(Br)cc2)COC(N)=N1 [Example 231] : its Ki reads 0.0025

====

Catalogue of Ki values
- SUBJECT_OF_TEST: TAAR1 (Mus musculus)
- PROTOCOL_NOTES: TAAR1 radioligand binding, membranes of stably transfected HEK293 cells (mouse)
- CONDITION_SUMMARY: mouse/rat; cell not marked 'rat'; radioligand [3H]-rac-2-(1,2,3,4-tetrahydro-1-naphthyl)-2-imidazoline, 4° C.; read-out: Ki (μM) mouse/rat
I only need the number, in µM, no unit after it.

{"MOLECULE": "NC1=N[C@H](c2ccc(Cl)cc2Cl)CO1", "SUBJECT_OF_TEST": "TAAR1 (Mus musculus)", "MEASURED_PARAMETER": "Ki", "READING_UNIT": "µM", "MEAS_VALUE": 0.0082}

Noted for Cc1cc(CC[C@H]2COC(N)=N2)ccc1F : its Ki reads 0.001

Noted for C[C@]1(c2ccc(Cl)cc2)COC(N)=N1 : its Ki reads 0.0038

Noted for NC1=N[C@@H](CCc2ccc(Cl)cc2F)CO1 : its Ki reads 0.0007

Noted for NC1=NC(CCC2CCCCC2)CO1 (stereo in doubt) : its Ki reads 0.0061

Noted for COc1ccc([C@H]2COC(N)=N2)cc1Cl : its Ki reads 0.0024

Noted for NC1=N[C@@H](CCc2ccccc2F)CO1 : its Ki reads 0.0011

Noted for C[C@@H](C[C@H]1COC(N)=N1)c1ccccc1 [82 (S, S)] : its Ki reads 0.008

Noted for NC1=N[C@@H](CCc2ccncc2F)CO1 : its Ki reads 0.0068

Noted for NC1=N[C@@H](c2ccc3ccccc3c2)CO1 : its Ki reads 0.0004

Noted for C[C@]1(CCc2ccc(Cl)cc2)COC(N)=N1 : its Ki reads 0.0057

Noted for CC(C[C@H]1COC(N)=N1)c1cc(F)cc(F)c1 (stereo partly shown) : its Ki reads 0.0017

Noted for NC1=N[C@@H](c2ccc(Cl)cc2)CO1 : its Ki reads 0.0014

Noted for NC1=N[C@@H](CCc2ccc(OC(F)(F)F)c(F)c2)CO1 : its Ki reads 0.0026

Noted for NC1=N[C@@H](Cc2ccccc2Cl)CO1 : its Ki reads 0.0047

Noted for NC1=N[C@@H](c2cccc(F)c2F)CO1 : its Ki reads 0.0034

Noted for CCC(C[C@H]1COC(N)=N1)c1cccc(Cl)c1F (stereo partly shown) : its Ki reads 0.0043

Noted for NC1=N[C@@H](CCc2ccc(C(F)(F)F)cc2)CO1 : its Ki reads 0.0026

Noted for NC1=N[C@@H](COc2ccc(Cl)cc2)CO1 : its Ki reads 0.002

Noted for NC1=N[C@@H](c2ccc(Cl)cc2C2CC2)CO1 : its Ki reads 0.0009

Noted for CC(C[C@H]1COC(N)=N1)c1ccc(Cl)c(Cl)c1 (stereo partly shown) : its Ki reads 0.0022

Noted for NC1=N[C@@H](Cc2cccc(C(F)(F)F)c2)CO1 : its Ki reads 0.0086
